- Experiment: Measurement (1): quantification of compound in brain and plasma by LC-MS/MS
- Format: in vivo
- Condition Summary: iv route at 3 mg/kg, mouse, read-out: Ratio: Quantity present in the brain / Quantity present in the plasma
Parameter: Kp
Give only the figure.

# Kp (molecule: NC(=O)C1(c2ccc(Cl)cc2)CCN(C(=O)c2cc(-c3ccc(Cl)cc3Cl)n(-c3ccc(Cl)cc3)c2CCCO)CC1 ) is 0.06
